# experiment.summary: Single dose PK, phase 1, healthy Japanese men
# Type: in vivo, human
# experimental.parameters: male, human, plasma, sc, 0.25 mg, single 2-hour SC INF 0.25 mg (plasma N = 1)
Where a SMILES comes first, the peptide text is derived from it. [ ]: non-standard residue; d: D form. Arg(Me) = CNC(=N)NCCC[C@H](N)C(=O)O; Hyp = O=C(O)[C@@H]1C[C@@H](O)CN1; azaGly = NNC(=O)O
test.readout: CL/F (mL/min)
Just the number please, in mL/min, no unit attached.

Entry under review: CC(=O)O.CNC(=N)NCCC[C@H](NC(=O)[C@H](CC(C)C)NC(=O)NNC(=O)[C@H](Cc1ccccc1)NC(=O)[C@@H](NC(=O)[C@H](CC(N)=O)NC(=O)[C@@H]1C[C@@H](O)CN1C(=O)[C@@H](Cc1ccc(O)cc1)NC(C)=O)[C@@H](C)O)C(=O)N[C@@H](Cc1c[nH]c2ccccc12)C(N)=O [API-MA] (Ac-[dY][Hyp]NTF[azaGly]L[Arg(Me)]W-NH2) . Reported CL/F?
313

Provenance of the data: patent US11013780B2
